# Protocol text: viability loss with induced miR-34 in A549 – imaging, A549 dox-inducible miR-34, nuclei and caspase counts, primary screen (AID 1347080); further: test concentration not given here
# Recorded conditions: A549 miR-34 inducible, Hoechst nuclei count, 48 h; measured here: total cells with miR-34 induction; stronger effect = lower value
Task for the reader: assign each of the following molecules its reported cell count.
Write the number on its own, no unit after it.

query: Name the recorded cell count of the molecule listed here: CC(C)OC(=O)CCC/C=C\C[C@@H]1[C@@H](/C=C/[C@@H](O)CCc2ccccc2)[C@H](O)C[C@@H]1O
result: 5640

query: Name the recorded cell count of the molecule listed here: CC(C)OC(=O)CCC/C=C\C[C@@H]1[C@@H](/C=C/[C@H](O)C2Cc3ccccc3C2)[C@@H](F)C[C@@H]1O
result: 5350

query: Name the recorded cell count of the molecule listed here: CCN(CCO)CCCOc1ccc2c(Nc3cc(CC(=O)Nc4cccc(F)c4)[nH]n3)ncnc2c1
result: 2110

query: Name the recorded cell count of the molecule listed here: COc1cc(OC2CCN(C)CC2)ccc1Nc1ncc2c(n1)n(C1CCCC1)c(=O)n2C
result: 5400
